# key: entry, value: solubility kinetic
Experiment: Kinetic solubility in pH 2.0 and pH 6.5 buffers
Assay type: physicochemical
Conditions: phosphate buffered saline pH 6.5, pH 6.5
measured.parameter: solubility kinetic

molecule: Cc1ccccc1-n1nnnc1C(c1cccnc1)N(Cc1cccc(C(F)(F)F)c1)C1CC1 (stereo not drawn)
measured.result: 1.5 to 2.9 µg/mL
--
molecule: Cc1ccccc1-n1nnnc1C(c1cncnc1)N(Cc1cccc(C(F)(F)F)c1)C1CC1 (stereo not drawn)
measured.result: 1.5 to 2.9 µg/mL
--
molecule: COc1ccc(C(F)(F)F)cc1CN(C1CC1)C(c1cccnc1)c1nnnn1-c1ccccc1C (stereo not drawn)
measured.result: 1.6 to 3.1 µg/mL
--
molecule: Cc1ccccc1N(C)C(=O)C(c1cccnc1)N(Cc1cc(C(F)(F)F)ccc1F)C1CC1 (stereo not drawn)
measured.result: 1.5 to 2.9 µg/mL
--
molecule: Cc1ccccc1N(C)C(=O)C(c1cccnc1)N(Cc1cccc(C(F)(F)F)c1)C1CC1 (stereo not drawn)
measured.result: 6.3 to 12.5 µg/mL
--
molecule: O=C(C(c1cccnc1)N(Cc1cccc(C(F)(F)F)c1)C1CC1)N1CCCCC1 (stereo not drawn)
measured.result: 25 to 50 µg/mL

====

Assay: Solubility in NP-40/DMSO buffer of the heme biomineralization assay
Format: physicochemical
# key: entry, value: solubility

compound: Cc1ccccc1-n1nnnc1C(c1cncnc1)N(Cc1cccc(C(F)(F)F)c1)C1CC1 (stereo not drawn)
solubility: ≥ 2000 µM
//
compound: Cc1ccccc1-n1nnnc1C(c1cccnc1)N(Cc1cccc(C(F)(F)F)c1)C1CC1 (stereo not drawn)
solubility: ≥ 2000 µM
//
compound: COc1ccc(Br)cc1CN(C)C(c1ccccc1)c1nnnn1-c1ccccc1C (racemic)
solubility: ≥ 2000 µM

====

Assay: HepG2tox assay run with the liver stage assay
Type: cell-based, human
Conditions: human, HepG2 cells, HepG2 CC50 (life cycle profiling), two independent replicates
# key: entry, value: CC50
measured.parameter: CC50 (µM)

compound: Cc1ccccc1-n1nnnc1C(c1cccnc1)N(Cc1cccc(C(F)(F)F)c1)C1CC1 (centres unmarked)
measured.parameter: CC50
endpoint.unit: µM
measured.result: 19
//
compound: Cc1ccccc1N(C)C(=O)C(c1cccnc1)N(Cc1cc(C(F)(F)F)ccc1F)C1CC1 (centres unmarked)
measured.parameter: CC50
endpoint.unit: µM
measured.result: 24

====

Assay: Kinetic solubility in pH 2.0 and pH 6.5 buffers
Assay type: physicochemical
Details: pH 2.0 buffer, pH 2
# key: entry, value: solubility kinetic

compound: Cc1ccccc1-n1nnnc1C(c1cncnc1)N(Cc1cccc(C(F)(F)F)c1)C1CC1 (stereo not shown)
solubility kinetic: 1.5 to 2.9 µg/mL
--
compound: Cc1ccccc1-n1nnnc1C(c1cccnc1)N(Cc1cccc(C(F)(F)F)c1)C1CC1 (stereo not shown)
solubility kinetic: 12 to 23 µg/mL
--
compound: COc1ccc(C(F)(F)F)cc1CN(C1CC1)C(c1cccnc1)c1nnnn1-c1ccccc1C (stereo not shown)
solubility kinetic: 12.5 to 25 µg/mL
--
compound: Cc1ccccc1N(C)C(=O)C(c1cncnc1)N(Cc1cccc(C(F)(F)F)c1)C1CC1 (stereo not shown)
solubility kinetic: 11 to 23 µg/mL

====

Assay: HepG2 in vitro cytotoxicity
Format: cell-based
Conditions: human, HepG2 cells
measured.parameter: selectivity ratio at 72 h

compound: CCCN(C(c1cncnc1)c1nnnn1-c1ccccc1C)C1(c2cccc(C(F)(F)F)c2)CC1 (centres unmarked)
measured.result: 40 to 50
--
compound: CCCN(C(c1cccnc1)c1nnnn1-c1ccccc1C)C1(c2cccc(C(F)(F)F)c2)CC1 (centres unmarked)
measured.result: 40 to 50
